Each recorded value in this set is attributed to ChEMBL document CHEMBL1154857.

Test system: Mycobacterium tuberculosis
ASSAY EXPLANATION: Antitubercular activity against Mycobacterium tuberculosis H37Rv by radiometric method
Type: functional
QUANTITY KIND: MIC (µM)
One number for each entry, in µM.

These solved cases illustrate the format of a correct answer.
O=C1C[C@@H](c2ccccc2O)Oc2cc(O)cc(O)c21 : 368
NNC(=O)c1ccncc1 : 1.4
O=C(/C=C/c1cccc(O)c1)c1ccc(O)cc1O : 417

So for O=C(/C=C/c1ccccc1)c1ccc(O)cc1O [2',4'-DIHYDROXYCHALCONE] , the logged MIC turned out to be 195

====

System: Mycobacterium tuberculosis
ASSAY EXPLANATION: Antitubercular activity against Mycobacterium tuberculosis H37Rv infected in human U937 cells by radiometric method
Format: functional, U-937
Could you please report measured MIC for the items listed next?
Answers are plain numbers, in µM.

These solved cases illustrate the format of a correct answer.
NNC(=O)c1ccncc1 : 2.9
O=C(/C=C/c1ccccc1)c1ccc(O)cc1O [2',4'-DIHYDROXYCHALCONE] : 195

Below are 2 compounds. Give each one its MIC.
1. O=C1C[C@@H](c2ccccc2O)Oc2cc(O)cc(O)c21
2. O=C(/C=C/c1cccc(O)c1)c1ccc(O)cc1O

1: 368; 2: 184
